Reported values: IC50 for Sodium-dependent serotonin transporter (Homo sapiens, UniProt P31645), one per item.
Field format: number, assumed nM, no unit text.

CC1CN(c2ccc3ccccc3n2)CCN1CCCCN1C(=O)CCCC1=O (configuration not stated) :: 50

Then there is this compound:
Query string: Query the reported IC50 for Sodium-dependent serotonin transporter (Homo sapiens, UniProt P31645); item: CC1CN(c2ccc3ccccc3n2)CCN1CCCN1C(=O)c2ccccc2C1=O (configuration not stated)
Result string: 80
